- system_tested: 3',5'-cyclic-AMP phosphodiesterase 4D (Homo sapiens, UniProt Q08499); note: assay procedure not described here
- Sequence (Q08499 whole entry): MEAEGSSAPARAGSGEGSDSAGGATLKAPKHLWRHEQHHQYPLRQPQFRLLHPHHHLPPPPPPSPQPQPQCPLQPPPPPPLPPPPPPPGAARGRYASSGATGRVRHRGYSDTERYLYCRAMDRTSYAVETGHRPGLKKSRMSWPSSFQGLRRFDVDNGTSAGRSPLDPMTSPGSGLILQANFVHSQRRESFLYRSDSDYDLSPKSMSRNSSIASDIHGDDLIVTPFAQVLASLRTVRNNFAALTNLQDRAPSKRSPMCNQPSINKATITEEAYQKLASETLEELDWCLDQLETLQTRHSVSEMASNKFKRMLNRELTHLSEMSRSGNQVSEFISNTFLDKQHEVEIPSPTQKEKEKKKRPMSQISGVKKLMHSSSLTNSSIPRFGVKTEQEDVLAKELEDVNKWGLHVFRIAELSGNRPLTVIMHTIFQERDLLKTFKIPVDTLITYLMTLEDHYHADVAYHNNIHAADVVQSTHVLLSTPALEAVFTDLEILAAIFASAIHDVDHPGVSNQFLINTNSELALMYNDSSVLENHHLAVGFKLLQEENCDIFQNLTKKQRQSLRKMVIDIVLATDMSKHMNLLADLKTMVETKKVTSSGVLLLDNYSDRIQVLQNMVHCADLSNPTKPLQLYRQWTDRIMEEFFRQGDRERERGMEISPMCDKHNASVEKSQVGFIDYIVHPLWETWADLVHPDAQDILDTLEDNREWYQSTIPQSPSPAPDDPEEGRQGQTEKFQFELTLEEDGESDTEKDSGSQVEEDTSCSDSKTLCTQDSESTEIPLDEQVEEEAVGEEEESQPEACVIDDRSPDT
- Assay type: functional
readout_type: AC50

S=P(N1CC1)(N1CC1)N1CC1 ... > 30 µM
CC(C)NC[C@H](O)COc1ccc(CC(N)=O)cc1 ... > 10 µM
CN(CCOc1ccc(CC2SC(=O)NC2=O)cc1)c1ccccn1 (centres undefined) ... 29 µM
CCOc1nc2cccc(C(=O)O)c2n1Cc1ccc(-c2ccccc2-c2nnn[nH]2)cc1 ... > 30 µM
CC/C=C\C/C=C\C/C=C\C/C=C\C/C=C\CCCC(=O)OCC ... 12 µM
CC(=O)c1ccc(S(=O)(=O)NC(=O)NC2CCCCC2)cc1 [ACETOHEXAMIDE] ... > 30 µM

Turning to the following compound.
response.value for `Clc1ccc(Cn2c(CN3CCCC3)nc3ccccc32)cc1` (field: AC50) = 28 µM
